System: Escherichia coli TOP10
EXPERIMENTAL_DETAILS: shrunken log2 fold change of peptide-encoding DNA abundance (4.5 h post-induction vs induction); higher = less antimicrobial activity (less host growth inhibition)
DETAILS: time post-induction: 4.5 h; library: site-saturation at positions 5, 18, 19, 20
PROPERTY: shrunken log2 fold change

CHAIN_SEQUENCE	MEASURED_ON	QUANTITATIVE_READOUT
RRIRYRPPRLPRPRPRPIWIPRP	Escherichia coli TOP10	-0.0319
RRIRNRPPRLPRPRPRPNNVPRP	Escherichia coli TOP10	-0.943
RRIRWRPPRLPRPRPRPSKRPRP	Escherichia coli TOP10	0.149
RRIRSRPPRLPRPRPRPKTDPRP	Escherichia coli TOP10	0.124
RRIRMRPPRLPRPRPRPGAPPRP	Escherichia coli TOP10	1.31
RRIRPRPPRLPRPRPRPAKGPRP	Escherichia coli TOP10	0.403
RRIRPRPPRLPRPRPRPNDPPRP	Escherichia coli TOP10	-0.0507
RRIRYRPPRLPRPRPRPYCTPRP	Escherichia coli TOP10	-1.54
RRIRWRPPRLPRPRPRPVQIPRP	Escherichia coli TOP10	0.278
RRIRPRPPRLPRPRPRPKQRPRP	Escherichia coli TOP10	0.186
RRIRARPPRLPRPRPRPRAYPRP	Escherichia coli TOP10	0.178
RRIRVRPPRLPRPRPRPITKPRP	Escherichia coli TOP10	0.0714
RRIRVRPPRLPRPRPRPYFTPRP	Escherichia coli TOP10	-0.689
RRIRNRPPRLPRPRPRPSFEPRP	Escherichia coli TOP10	-0.0494
RRIRIRPPRLPRPRPRPPDFPRP	Escherichia coli TOP10	0.189

* * *

System: Escherichia coli TOP10;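 note: peptides expressed intracellularly from a pBAD plasmid library in pooled LB shake-flask culture, induced with 0.3% L-arabinose, DNA abundance read by NGS, three biological replicates, DESeq2 with apeglm shrinkage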
EXPERIMENTAL_DETAILS: shrunken log2 fold change of peptide-encoding DNA abundance (4.5 h post-induction vs induction); higher = less antimicrobial activity (less host growth inhibition)
DETAILS: time post-induction: 4.5 h; library: site-saturation at positions 5, 18, 19, 20
Entries and their measured shrunken log2 fold change follow.
PROPERTY: shrunken log2 fold change

CHAIN_SEQUENCE	PROPERTY	QUANTITATIVE_READOUT
RRIRERPPRLPRPRPRPFLWPRP	shrunken log2 fold change	0.155
RRIRERPPRLPRPRPRPRVWPRP	shrunken log2 fold change	0.387
RRIRWRPPRLPRPRPRPWFIPRP	shrunken log2 fold change	-0.436
RRIRIRPPRLPRPRPRPGDLPRP	shrunken log2 fold change	-0.223
RRIRKRPPRLPRPRPRPRLQPRP	shrunken log2 fold change	0.475
RRIRNRPPRLPRPRPRPSAEPRP	shrunken log2 fold change	0.113
RRIRLRPPRLPRPRPRPQYKPRP	shrunken log2 fold change	-1.05
RRIRYRPPRLPRPRPRPFEYPRP	shrunken log2 fold change	-0.0492
RRIRKRPPRLPRPRPRPNFLPRP	shrunken log2 fold change	-0.185
RRIRRRPPRLPRPRPRPINIPRP	shrunken log2 fold change	-0.256
RRIRYRPPRLPRPRPRPCIHPRP	shrunken log2 fold change	-0.0152
RRIRDRPPRLPRPRPRPDGKPRP	shrunken log2 fold change	0.00996
RRIRKRPPRLPRPRPRPPADPRP	shrunken log2 fold change	0.563
RRIRTRPPRLPRPRPRPVVVPRP	shrunken log2 fold change	0.0543
RRIRLRPPRLPRPRPRPVEIPRP	shrunken log2 fold change	0.0548
RRIRWRPPRLPRPRPRPQMKPRP	shrunken log2 fold change	-0.316
RRIRKRPPRLPRPRPRPGVCPRP	shrunken log2 fold change	0.87
RRIRSRPPRLPRPRPRPQLKPRP	shrunken log2 fold change	0.0348
RRIRYRPPRLPRPRPRPGIDPRP	shrunken log2 fold change	-0.16
RRIRVRPPRLPRPRPRPWSQPRP	shrunken log2 fold change	-0.219
RRIRNRPPRLPRPRPRPFNHPRP	shrunken log2 fold change	-1.02
RRIRSRPPRLPRPRPRPSPNPRP	shrunken log2 fold change	0.0503
RRIRFRPPRLPRPRPRPTFIPRP	shrunken log2 fold change	-0.44
RRIRHRPPRLPRPRPRPTAAPRP	shrunken log2 fold change	0.518
RRIRMRPPRLPRPRPRPMWKPRP	shrunken log2 fold change	-0.00141
RRIRCRPPRLPRPRPRPRAYPRP	shrunken log2 fold change	-0.35
RRIRRRPPRLPRPRPRPSTNPRP	shrunken log2 fold change	-0.0966
RRIRGRPPRLPRPRPRPSMCPRP	shrunken log2 fold change	0.37
RRIRMRPPRLPRPRPRPDEVPRP	shrunken log2 fold change	0.00989
RRIRCRPPRLPRPRPRPTWPPRP	shrunken log2 fold change	0.371
RRIRNRPPRLPRPRPRPVQDPRP	shrunken log2 fold change	-0.302
RRIRERPPRLPRPRPRPSYFPRP	shrunken log2 fold change	-0.48
RRIRGRPPRLPRPRPRPCFWPRP	shrunken log2 fold change	0.67
RRIRARPPRLPRPRPRPGQRPRP	shrunken log2 fold change	0.107
RRIRTRPPRLPRPRPRPAFHPRP	shrunken log2 fold change	0.0779
RRIRPRPPRLPRPRPRPLDCPRP	shrunken log2 fold change	0.0595
RRIRWRPPRLPRPRPRPSYEPRP	shrunken log2 fold change	0.086
RRIRNRPPRLPRPRPRPVHFPRP	shrunken log2 fold change	0.0937
RRIRNRPPRLPRPRPRPYMQPRP	shrunken log2 fold change	-0.315
RRIRLRPPRLPRPRPRPGNGPRP	shrunken log2 fold change	0.0164
RRIRYRPPRLPRPRPRPSIMPRP	shrunken log2 fold change	-1.54
RRIRCRPPRLPRPRPRPWSTPRP	shrunken log2 fold change	-0.148
RRIRGRPPRLPRPRPRPKVPPRP	shrunken log2 fold change	0.447
RRIRFRPPRLPRPRPRPGDIPRP	shrunken log2 fold change	0.0113
RRIRWRPPRLPRPRPRPADIPRP	shrunken log2 fold change	0.0169
RRIRFRPPRLPRPRPRPGSEPRP	shrunken log2 fold change	-0.0634
RRIRRRPPRLPRPRPRPDAVPRP	shrunken log2 fold change	0.462
RRIRARPPRLPRPRPRPSDLPRP	shrunken log2 fold change	-0.073
RRIRDRPPRLPRPRPRPVMPPRP	shrunken log2 fold change	-0.189
RRIRMRPPRLPRPRPRPYQPPRP	shrunken log2 fold change	0.0396
RRIRQRPPRLPRPRPRPYKHPRP	shrunken log2 fold change	-0.161
RRIRQRPPRLPRPRPRPSVYPRP	shrunken log2 fold change	-0.643
RRIRHRPPRLPRPRPRPTFSPRP	shrunken log2 fold change	-0.22
RRIRMRPPRLPRPRPRPWMCPRP	shrunken log2 fold change	-0.01
RRIRMRPPRLPRPRPRPQEIPRP	shrunken log2 fold change	-0.00046
RRIRPRPPRLPRPRPRPDYPPRP	shrunken log2 fold change	-0.0173
RRIRPRPPRLPRPRPRPFAIPRP	shrunken log2 fold change	-0.232
RRIRCRPPRLPRPRPRPQIRPRP	shrunken log2 fold change	-0.332
RRIRWRPPRLPRPRPRPLFYPRP	shrunken log2 fold change	-0.427
RRIRHRPPRLPRPRPRPFVRPRP	shrunken log2 fold change	-0.073
RRIRDRPPRLPRPRPRPRTAPRP	shrunken log2 fold change	0.445
RRIRLRPPRLPRPRPRPAFGPRP	shrunken log2 fold change	0.359
RRIRGRPPRLPRPRPRPNWDPRP	shrunken log2 fold change	0.738
